Each record here notes measured normalized growth.
experiment: chemical genetic growth profiling, strain panel (AID 1159580);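 further: tested at 20 µM; growth read once vehicle control cultures reached saturation at 30 °C; 1 = growth at the plate median or of vehicle wells; lower values mean less growth of the strain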; conditions: S. cerevisiae deletion strains, growth OD, locus YLR102C, strain apc9, active compounds read low
In all, about 5,500 compounds went through this assay and about 2,000 (36%) were called active. Inconclusive results (about 18%) are left out. Some of the results follow.

compound	normalized growth
CC[N+](C)(C)c1cccc(O)c1	0.977
CC12CCC(O)CC1CCC1C2[C@H](O)CC2(C)C(C3=CC(=O)OC3)CCC12O (some centres not stated)	0.994
COc1c(C)c2c(c(C)c1Cl)Oc1c(Cl)c(OC)c(Cl)c(C)c1C(=O)O2	1.01
CCC(C)[C@H]1O[C@]2(C=C[C@@H]1C)C[C@@H]1C[C@@H](C/C=C(\C)[C@@H](OC3C[C@H](OC)C(O[C@H]4C[C@H](OC)[C@@H](O)[C@H](C)O4)[C@H](C)O3)[C@@H](C)/C=C/C=C3\CO[C@@H]4[C@H](O)C(C)=C[C@@H](C(=O)O1)[C@]34O)O2 (some centres not stated)	1.02
COC(=O)c1c(OC)cc2c(c1C)Oc1c(Cl)c(O)c(Cl)c(C)c1C(=O)O2	0.927
COC(=O)c1c(C)c2c(c(C)c1O)OC(=O)c1c(C)c(Cl)c(O)c(Cl)c1O2	1.01
O=C(O)c1cccnc1	0.997
CN(C)CCCN1c2ccccc2CCc2ccccc21	0.984
CC(C)=CCc1c2c(c3occ(-c4ccc(O)cc4)c(=O)c3c1O)C=CC(C)(C)O2	1.05
CN(C)CCCN1c2ccccc2Sc2ccc(C(F)(F)F)cc21	0.979
CN(C)CCCN1c2ccccc2Sc2ccccc21	1.01
N[C@@H](CCC(=O)N[C@@H](CS)C(=O)NCC(=O)O)C(=O)O	0.986
Oc1cccc(O)c1	0.993
CS(=O)(=O)c1ccc([C@@H](O)[C@@H](CO)NC(=O)C(Cl)Cl)cc1	0.978
CC(CCc1ccccc1)NCC(O)c1ccc(O)c(C(N)=O)c1 (configuration not stated)	1.01
CC(=O)Oc1ccc(C(c2ccc(OC(C)=O)cc2)c2ccccn2)cc1	0.995
CC(=O)OC1CCC2(C)C(CC(OC(C)=O)C3(C)C4=CC(=O)OC(c5ccoc5)C4(C)CCC23)C1(C)C (configuration not stated)	0.995
CN(C)CCCN1c2ccccc2CCc2ccc(Cl)cc21	0.995
O=C(O)c1ccc(S(=O)(=O)N(Cl)Cl)cc1	1.02
CN(C)CCCN1c2ccccc2Sc2ccc(Cl)cc21	1
CC(C)CC1NC(=O)CNC1=O (configuration not stated)	0.993
O=C1NC(O)=NC1(c1ccccc1)c1ccccc1	1.02
CC(C)=CCc1c2c(c3occ(-c4ccc(O)c(O)c4)c(=O)c3c1O)C=CC(C)(C)O2	0.957
CCCN(CCC)S(=O)(=O)c1ccc(C(=O)O)cc1	1
CC(=O)N[C@@H](Cc1c[nH]c2ccccc12)C(N)=O	0.999
C=C(C)C1CCC(C)(O)C2CC3OC3(C)C2C1 (configuration not stated)	1.01
CO[C@H]1CC(O[C@@H]2/C(C)=C/C[C@@H]3C[C@@H](C[C@]4(CC[C@H](C)[C@@H](C5CCCCC5)O4)O3)OC(=O)[C@@H]3C=C(C)/C(=N\O)[C@H]4OC/C(=C\C=C\[C@@H]2C)[C@]43O)O[C@@H](C)C1O (some centres not stated)	0.997
CCN1CCN(C(=O)NC(C(=O)N[C@@H]2C(=O)N3[C@@H]2SC(C)(C)[C@@H]3C(=O)O)c2ccccc2)C(=O)C1=O (some centres not stated)	1
CC(=O)O[C@@H]1CC[C@@]2(C)C(C[C@@H](OC(C)=O)[C@@]3(C)C4=CC(=O)O[C@@H](c5ccoc5)[C@]4(C)CCC23)C1(C)C (some centres not stated)	0.998
CC(Cc1cccc(C(F)(F)F)c1)NCCOC(=O)c1ccccc1 (configuration not stated)	1.02
CCCSc1ccc2nc(NC(=O)OC)[nH]c2c1	0.973
CCCOc1ccc2nc(NC(=O)OC)[nH]c2c1	0.981
NNCc1cccc(O)c1	0.982
CC(=O)O[C@@H]1CC2C(C)(C)C(=O)C=C[C@]2(C)C2CC[C@]3(C)C(=CC(=O)O[C@H]3c3ccoc3)[C@@]21C (some centres not stated)	0.974
COC(=O)c1c(OC)cc2c(c1C)Oc1c(Cl)c(OC(C)=O)c(Cl)c(C)c1C(=O)O2	1.01
NS(=O)(=O)c1cc2c(cc1Cl)NC(CSCc1ccccc1)=NS2(=O)=O	0.986
N=C(N)N	0.986
CC(N=C(NC#N)Nc1ccncc1)C(C)(C)C (configuration not stated)	1.02
COC(=O)c1c(C)c2c(c(C)c1OC)OC(=O)c1c(C)c(Cl)c(OC)c(Cl)c1O2	1.01
C[n+]1ccccc1/C=N/O	0.994
NC1=NCCN1CC(=O)O	0.986
CC(C)c1ccc2c(c1)CCC1[C@](C)(CN)CCC[C@]21C (some centres not stated)	0.922
